Recorded values, source the RNAGym collection of RNA variant scans (doi:10.1073/pnas.2313332121).

B1: TPR t1 (parent)
chain: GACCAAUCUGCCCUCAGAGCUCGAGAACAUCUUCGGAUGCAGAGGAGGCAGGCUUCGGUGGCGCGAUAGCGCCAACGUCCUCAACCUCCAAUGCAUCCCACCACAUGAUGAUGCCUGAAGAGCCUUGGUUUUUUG

Variants of: B1
Run Description: polymerase ribozyme fitness, log enrichment relative to wild type (log ratio); higher = more active; in vitro selection for triplet polymerase activity
Measured Parameter: polymerase ribozyme fitness (log ratio)
Give bare numbers.

Examples with their reported polymerase ribozyme fitness (log ratio) follow.
A18U A46G G52A A118U	-2.9
G10C A83U U106G	-3.53
G48C G61C C123G	-0.406

Please supply polymerase ribozyme fitness (log ratio) for each of the following items, keeping them in order.
1. G35A G113A
2. C40U C80U C86U A91C U112G

output:
-4.16
-3.87

Please supply polymerase ribozyme fitness (log ratio) for each of the following items, keeping them in order.
1. G17A G48C
2. G52U U109C A118U
3. A27C C72U C124A
4. A43U C73U C86U U125G
5. G63C C79G
6. C13U A41G A46G C53A U78C

output:
1: -4.15; 2: -6.47; 3: -1.07; 4: -2.65; 5: -0.109; 6: -0.474

Please supply polymerase ribozyme fitness (log ratio) for each of the following items, keeping them in order.
1. C72U A83U
2. A100C C101G C104A C124A
3. A43C U112G

output:
-1.1
-3.18
-2.77

Please supply polymerase ribozyme fitness (log ratio) for each of the following items, keeping them in order.
1. A46U G52U A66G C104U G110A
2. U87G G120A
3. C73A C114G U130A
4. G17C U21A G39A C72A U112C C115A
5. C8A C79U C98G C114U
6. A50U G52C A83C
7. A18C U32C

output:
1: -5.89; 2: 0.0419; 3: -2.99; 4: -0.984; 5: -6.7; 6: -2.39; 7: -2.05

input: Quick one: polymerase ribozyme fitness (log ratio) of C49U G61A U96A ?
output: -0.582
